- Test system: giant foxtail
- method_notes: Test E preemergence
- Assay type: in vivo, Setaria faberii
- experimental_context: 125 g ai/ha, scale 0 to 100, 0 no effect, 100 complete control
recorded_metric: Plant response rating, Foxtail, Giant
Please reply with the number alone, leaving off any unit.

stdin: Could you tell me which Plant response rating, Foxtail, Giant is on file for Cc1cnc(Oc2cccc(C#N)c2-n2cc(C(F)(F)F)cn2)nc1 ?
stdout: 100

stdin: Would you kindly share the measured Plant response rating, Foxtail, Giant for FC(F)c1cccc(Oc2ncc(Cl)cn2)c1-n1cc(C(F)(F)F)cn1 ?
stdout: 100

stdin: What measured Plant response rating, Foxtail, Giant goes with Fc1cnc(Oc2cccc(C(F)F)c2-n2cc(C(F)(F)F)cn2)nc1 ?
stdout: 95

stdin: Requested read-out: Plant response rating, Foxtail, Giant. Entry: Cc1cnc(Oc2cccc(C#N)c2-n2cc(C#N)cn2)nc1
stdout: 50

###

- Tested on: ducksalad
- method_notes: Test C flooded paddy test
- Type: in vivo, Heteranthera limosa
- experimental_context: Flood, 62 g ai/ha; scale 0 to 100 (0 no effect, 100 complete control), 13 to 15 days
Would you mind telling me the reported Plant response rating, Ducksalad of each entry?
Answer using only a numeral; do not append any unit.

stdin: Give the measured Plant response rating, Ducksalad of FC(F)(F)c1cnn(-c2c(Br)cccc2Oc2ncc(Cl)cn2)c1 .
stdout: 50

stdin: Quick check: Plant response rating, Ducksalad of N#Cc1cccc(Oc2ncc(Cl)cn2)c1-n1cc(OC(F)F)cn1 ?
stdout: 40

stdin: Please give the measured Plant response rating, Ducksalad for this molecule: Clc1cnc(Oc2ccccc2-n2cnc(Br)c2)nc1
stdout: 0

stdin: So what does the record say about Plant response rating, Ducksalad for FC(F)c1cccc(Oc2ncc(Cl)cn2)c1-n1cc(I)cn1 ?
stdout: 30

stdin: Need Plant response rating, Ducksalad, item COc1cnc(Oc2ccccc2-n2cc(Br)cn2)nc1
stdout: 0

###

- Test system: giant foxtail
- method_notes: Test C postemergence
- Assay type: in vivo, Setaria faberii
- experimental_context: Postemergence, 62 g ai/ha; scale 0 to 100 (0 no effect, 100 complete control)
recorded_metric: Plant response rating, Foxtail, Giant
The response must contain the number and no unit.

stdin: What Plant response rating, Foxtail, Giant value was documented for this compound, Fc1cnc(Oc2cccc(C(F)F)c2-n2cc(Cl)cn2)nc1 [Compound 94] ?
stdout: 10

stdin: So what does the record say about Plant response rating, Foxtail, Giant for FCc1cn(-c2ccccc2Oc2ncc(Cl)cn2)nn1 [Compound 123] ?
stdout: 20

stdin: What value of Plant response rating, Foxtail, Giant has been recorded for this entry: CC(C)c1cnn(-c2c(C#N)cccc2Oc2ncc(Cl)cn2)c1 [Compound 85]
stdout: 10

stdin: Would you kindly share the measured Plant response rating, Foxtail, Giant for Clc1cnc(Oc2cccc(Cl)c2-n2cc(I)cn2)nc1 [Compound 181] ?
stdout: 25

stdin: Quick check: Plant response rating, Foxtail, Giant of FC(F)c1cccc(Oc2ncc(Br)cn2)c1-n1cc(C(F)(F)F)cn1 [Compound 163] ?
stdout: 10

stdin: Consider the compound N#Cc1cccc(Oc2ncc(Br)cn2)c1-n1cc(Br)cn1 [Compound 57] and give its measured Plant response rating, Foxtail, Giant.
stdout: 10

stdin: Look at this compound and give its reported Plant response rating, Foxtail, Giant. N#Cc1cnn(-c2c(Br)cccc2Oc2ncc(Cl)cn2)c1 [Compound 140]
stdout: 20

###

- System: pigweed
- method_notes: Test A preemergence
- Type: in vivo, Amaranthus retroflexus
- experimental_context: 125 g ai/ha
- Excerpt: […]
recorded_metric: Pigweed plant response rating (0 to 100 scale)
Please state the value as a number alone, without comment.

stdin: Could you share which Pigweed plant response rating (0 to 100 scale) value was measured for FC(F)c1cnn(-c2c(Cl)cccc2Oc2ncc(Cl)cn2)c1 ?
stdout: 100

stdin: Suppose we examine the compound COc1cnc(Oc2ccccc2-n2cc(Br)cn2)nc1 ; what Pigweed plant response rating (0 to 100 scale) value has been reported?
stdout: 90

stdin: Using the record for FC(F)c1cnn(-c2c(Br)cccc2Oc2ncc(Cl)cn2)c1 , report its Pigweed plant response rating (0 to 100 scale).
stdout: 100

stdin: Please report the recorded Pigweed plant response rating (0 to 100 scale) for Cc1cn(-c2c(C#N)cccc2Oc2ncc(Cl)cn2)cn1 .
stdout: 30

stdin: Dear colleague, I am looking for the recorded Pigweed plant response rating (0 to 100 scale) of the following compound: Fc1cnc(Oc2cccc(C(F)F)c2-n2cc(C(F)(F)F)cn2)nc1
stdout: 100

stdin: May I ask what Pigweed plant response rating (0 to 100 scale) has been recorded for O=Cc1cn(-c2ccccc2Oc2ncc(Cl)cn2)nn1 ?
stdout: 0

stdin: Name the recorded Pigweed plant response rating (0 to 100 scale) for FCc1cccc(Oc2ncc(Cl)cn2)c1-n1cc(I)cn1 .
stdout: 90

stdin: Entry FC(F)(F)Sc1cnn(-c2ccccc2Oc2ncc(Br)cn2)c1 : reported Pigweed plant response rating (0 to 100 scale) = ?
stdout: 20

stdin: Would you kindly share the measured Pigweed plant response rating (0 to 100 scale) for N#Cc1cc(F)cc(Oc2ncc(Cl)cn2)c1-n1cc(Br)cn1 ?
stdout: 100

###

- System: barnyardgrass
- method_notes: Test C postemergence
- Assay type: in vivo, Echinochloa crus-galli
- experimental_context: 16 g ai/ha, postemergence; 0 is no effect, 100 is complete control
For each of the compounds below, state its Plant response rating (0 to 100), Barnyardgrass.

stdin: Recorded Plant response rating (0 to 100), Barnyardgrass of N#Cc1cnn(-c2c(Oc3ncc(F)cn3)cccc2C(F)F)c1 [Compound 240] , please.
stdout: 0

stdin: If you can, please state the reported Plant response rating (0 to 100), Barnyardgrass value of Clc1cnc(Oc2cccc(Cl)c2-n2cc(I)cn2)nc1 [Compound 181] .
stdout: 5

stdin: Consider the compound FC(F)c1cnn(-c2c(Cl)cccc2Oc2ncc(Cl)cn2)c1 [Compound 192] and give its measured Plant response rating (0 to 100), Barnyardgrass.
stdout: 5

stdin: What value of Plant response rating (0 to 100), Barnyardgrass has been recorded for this entry: Fc1cnc(Oc2ccccc2-n2cc(C(F)F)cn2)nc1 [Compound 228]
stdout: 0

stdin: Fill in the blank: the reported Plant response rating (0 to 100), Barnyardgrass of Clc1cnc(Oc2ccccc2-n2cc(Br)nn2)nc1 [Compound 223] is ____.
stdout: 0

stdin: What value of Plant response rating (0 to 100), Barnyardgrass has been recorded for this entry: FCc1cccc(Oc2ncc(F)cn2)c1-n1cc(I)cn1 [Compound 152]
stdout: 5

stdin: Report Plant response rating (0 to 100), Barnyardgrass for FC(F)Oc1cnn(-c2c(Cl)cccc2Oc2ncc(Cl)cn2)c1 [Compound 258] please.
stdout: 5

stdin: Look at this compound and give its reported Plant response rating (0 to 100), Barnyardgrass. FC(F)(F)c1cnn(-c2c(Br)cccc2Oc2ncc(Cl)cn2)c1 [Compound 191]
stdout: 10

###

- System: ragweed
- method_notes: Test A preemergence
- Assay type: in vivo, Ambrosia elatior
- experimental_context: 31 g ai/ha, 0 to 100 scale where 0 is no effect and 100 is complete control, visual, approximately 10 days
recorded_metric: Plant response rating, Ragweed
Output: the number by itself.

stdin: Param readout = Plant response rating, Ragweed; param system = ragweed; param query = FCc1cccc(Oc2ncc(Br)cn2)c1-n1cc(I)cn1 [Compound 244] ; response: value
stdout: 0

stdin: Request - read-out Plant response rating, Ragweed | tested on ragweed | compound N#Cc1cccc(Oc2ncc(Cl)cn2)c1-n1cc(C(F)F)cn1 [Compound 253]
stdout: 20

stdin: Hi! What's the reported Plant response rating, Ragweed for Cc1cn(-c2c(C#N)cccc2Oc2ncc(Cl)cn2)cn1 [Compound 260] on ragweed?
stdout: 0

stdin: Query the reported Plant response rating, Ragweed for ragweed; item: FC(F)(F)c1cnn(-c2c(Oc3ncc(Cl)cn3)cccc2-c2ncon2)c1 [Compound 279]
stdout: 0

stdin: Query Plant response rating, Ragweed on ragweed for FC(F)Oc1cnn(-c2c(Cl)cccc2Oc2ncc(Cl)cn2)c1 [Compound 258]
stdout: 0

###

Give Lambsquarters plant response rating for every item shown.
- Test system: lambsquarters
- method_notes: Test C preemergence
- Type: in vivo, Chenopodium album
- experimental_context: 16 g ai/ha, preemergence; scale 0 to 100 (0 no effect, 100 complete control)
Output spec: single numeric token, no unit.

stdin: Request the reported Lambsquarters plant response rating associated with CC(C)c1cnn(-c2c(C#N)cccc2Oc2ncc(Cl)cn2)c1
stdout: 65

stdin: Form field: reported Lambsquarters plant response rating of N#Cc1cnn(-c2c(Oc3ncc(F)cn3)cccc2C(F)F)c1
stdout: 70

stdin: # lookup: Lambsquarters plant response rating of FC(F)c1cccc(Oc2ncc(Cl)cn2)c1-n1cc(C(F)(F)F)cn1
stdout: 90

stdin: Can you look up the measured Lambsquarters plant response rating of N#Cc1cccc(Oc2ncc(Cl)cn2)c1-n1cc(OC(F)F)cn1 for me?
stdout: 95

stdin: Any idea what its Lambsquarters plant response rating is? The compound is Cc1cnc(Oc2cccc(C#N)c2-n2cc(C#N)cn2)nc1
stdout: 100

stdin: Which Lambsquarters plant response rating value belongs to Cc1cnc(Oc2cccc(C#N)c2-n2cc(C(F)(F)F)cn2)nc1 ?
stdout: 85
